Target: RzmA-Cs (Mycetohabitans rhizoxinica, UniProt E5ATN9, R148A)
Construct: gene RBRH_01504; excised starter condensation (Cs) domain, residues 1-431, pET28a, E. coli BL21(DE3), N-terminal His6 tag removed by thrombin, size-exclusion purified
Sequence (E5ATN9 1-431 R148A): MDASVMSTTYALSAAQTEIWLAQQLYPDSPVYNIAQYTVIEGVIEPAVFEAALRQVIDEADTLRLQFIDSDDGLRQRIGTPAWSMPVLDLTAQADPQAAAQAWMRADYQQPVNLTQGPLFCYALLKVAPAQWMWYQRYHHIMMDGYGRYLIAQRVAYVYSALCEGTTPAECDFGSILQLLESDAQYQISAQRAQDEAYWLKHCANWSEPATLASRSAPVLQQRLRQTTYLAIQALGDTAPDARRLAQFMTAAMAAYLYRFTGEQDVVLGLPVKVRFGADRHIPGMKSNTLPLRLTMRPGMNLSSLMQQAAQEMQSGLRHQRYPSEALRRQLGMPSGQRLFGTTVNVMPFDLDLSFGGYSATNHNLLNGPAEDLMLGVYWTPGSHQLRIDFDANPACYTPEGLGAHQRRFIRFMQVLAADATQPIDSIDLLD
Test: isothermal titration calorimetry
Assay type: binding
readoutLabel: Kd

Lab request: please report Kd under test system RzmA-Cs (Mycetohabitans rhizoxinica, UniProt E5ATN9, R148A) for `CCCCCCCC(=O)SCCNC(=O)CCNC(=O)[C@H](O)C(C)(C)COP(=O)(O)OP(=O)(O)OC[C@H]1O[C@@H](n2cnc3c(N)ncnc32)[C@H](O)[C@@H]1OP(=O)(O)O` ~300 nM
